measurement-description: budding yeast growth changes without added modifier – OD600, strain BY4716, 24 h, basal condition, primary screen (AID 1173)
condition-description: S. cerevisiae BY4716 growth, OD600, 24 h; higher = more signal, called active from +8 up or from −8 down
Listed molecules paired with reported z-score
experimental-readout: z-score

* C[N+](C)(C)CCCCCCNC(=O)[C@@H]1C[C@@H]2C(=O)NCC(=O)N2[C@@H]1c1cccc(OCCO)c1 | -1.33
* CN(C)C(=O)[C@@]1(CCC(=O)OC(C)(C)C)COC(c2ccc(OCCCO)cc2)=N1 | -0.874
* NC(=O)[C@@H]1[C@H]2C(=O)O[C@H](c3ccccc3)[C@H](c3ccccc3)N2[C@H](c2ccccc2OCCO)[C@@]12C(=O)Nc1ccc(C#CCCO)cc12 | -1.45
* COc1ccc(CCNC(=O)[C@@H]2c3ccccc3C(=O)N(Cc3ccccc3C(F)(F)F)[C@H]2c2ccc(CO)cc2)cc1 | 0.415
* CN(C)C(=O)[C@]1(Cc2ccccc2N=[N+]=[N-])N=C(c2ccc(OCCCO)cc2)O[C@@H]1c1ccccc1CN=[N+]=[N-] | -1.93
* COc1ccc([Si](C)(C)[C@@H]2[C@@H](CC(=O)N3Cc4ccccc4C[C@H]3CO)O[C@]3(C(=O)N(Cc4cccc(N5CCCCC5=O)c4)c4ccccc43)[C@H]2C)cc1 | 0.0062
* COC(=O)c1ccc(OC)c(/C=C\CC(CCc2ccccc2)OC(=O)c2ccncc2)c1 (stereo not given) | 0.0069
* COC(=O)[C@@]1(Cc2ccc(F)cc2)[C@H]2c3cc(C(=O)N(C)C)n(CCSCCO)c3C[C@H]2CN1C(=O)c1ccccc1 | -0.0857
* COCCOC(=O)N1C(=O)[C@@]2(c3ccccc31)[C@H](c1ccccc1OCCO)N1[C@H](c3ccccc3)[C@H](c3ccccc3)OC(=O)[C@H]1[C@@H]2C(=O)N1CCc2cc(OC)c(OC)cc2C1 | 1.99
* O=C(Nc1cc(Br)ccc1C(=O)NCc1cccc(O)c1)c1ccccc1 | -0.887
* CCOc1cc(C(O)C2C=CC3C(=O)NC(=O)C3N2Nc2ccccn2)ccc1O (stereo not given) | 1.67
* COc1ccc(C(=O)Nc2ccc(CN3C(=O)[C@]4(O[C@H](CCn5cc([C@H](O)c6ccccc6)nn5)[C@@H]([Si](C)(C)c5ccc(OC)cc5)[C@@H]4C)c4ccccc43)cc2)cc1 | -0.884
* C[N+](C)(C)CCCC[C@@H]1NC(=O)[C@@H]2C[C@H](C(=O)O)[C@H](c3cccc(OCCO)c3)N2C1=O | -0.219
* CC(C)CN1C(=O)[C@@]2(Cc3ccccc31)c1ccccc1C(=O)N(Cc1ccccc1)[C@H]2c1ccc(CO)cc1 | 0.145
* CCCN1C(=O)[C@@H]2Cc3c([nH]c4ccccc34)[C@@H](c3cccc(O)c3)N2C1=O | 0.852
